- Test system: Bowes
- measurement-protocol: drug sensitivity score (DSS) (DSS (unitless, 0-50 scale)); higher = more sensitive (stronger viability inhibition); extreme values may be limits of the assay
- settings: 72 h; culture: 2D
metric-name: drug sensitivity score
Number only, please.

Measured on Bowes, CC[C@@H]1C(=O)N(C)c2cnc(Nc3ccc(C(=O)N[C@H]4CC[C@H](N5CCN(CC6CC6)CC5)CC4)cc3OC)nc2N1C(C)C has a documented drug sensitivity score of 17.5

Measured on Bowes, CC(=O)O[C@@]12CO[C@@H]1C[C@H](O)[C@@]1(C)C(=O)[C@H](O)C3=C(C)[C@@H](OC(=O)[C@H](O)[C@@H](NC(=O)OC(C)(C)C)c4ccccc4)C[C@@](O)([C@@H](OC(=O)c4ccccc4)[C@H]21)C3(C)C has a documented drug sensitivity score of 28.8

Measured on Bowes, C[C@@H](Oc1cc(-c2cnn(C3CCNCC3)c2)cnc1N)c1c(Cl)ccc(F)c1Cl has a documented drug sensitivity score of 0

* * *

- Test system: Bowes
- measurement-protocol: drug sensitivity score (DSS) (DSS (unitless, 0-50 scale)); higher = more sensitive (stronger viability inhibition); extreme values may be limits of the assay
- settings: 72 h; culture: 2D
Exercise: state measured drug sensitivity score for each of the compounds provided.
Number only, please.

Measured on Bowes, CCOC(=O)CCNc1cc(N2CCc3ccccc3CC2)nc(-c2ccccn2)n1 has a documented drug sensitivity score of 11.2

Measured on Bowes, N#Cc1ccc(COC[C@H]2O[C@@H](n3c(NCc4ccc(Cl)c(Cl)c4)nc4c(N)ncnc43)[C@H](O)[C@@H]2O)cc1 has a documented drug sensitivity score of 2.7

Measured on Bowes, O=C1CCc2c(Oc3ccc4c(c3)[C@@H]3[C@H](O4)[C@H]3c3nc4cc(C(F)(F)F)ccc4[nH]3)ccnc2N1 has a documented drug sensitivity score of 4

Measured on Bowes, CC(=O)c1cnc2ccc(-c3cc(Cl)c(O)c(Cl)c3)nc2c1N[C@H]1CC[C@H](CN(C)C)CC1 has a documented drug sensitivity score of 15.4

Measured on Bowes, CCc1c(C(=O)C(N)=O)c2c(OCC(=O)O)cccc2n1Cc1ccccc1 has a documented drug sensitivity score of 0

Measured on Bowes, CNC(=O)c1ccc(C)c(-n2c(C)cc(OCc3ccc(F)cc3F)c(Br)c2=O)c1 has a documented drug sensitivity score of 0

Measured on Bowes, Cc1ccc(F)c(NC(=O)Nc2ccc(-c3cccc4[nH]nc(N)c34)cc2)c1 has a documented drug sensitivity score of 2.2

Measured on Bowes, Nc1nc(Nc2ccc3c(c2)CC[C@@H](N2CCCC2)CC3)nn1-c1cc2c(nn1)-c1ccccc1CCC2 has a documented drug sensitivity score of 3.2

* * *

- Test system: FM-MEL-6
- measurement-protocol: drug sensitivity score (DSS) (DSS (unitless, 0-50 scale)); higher = more sensitive (stronger viability inhibition); extreme values may be limits of the assay
- settings: 72 h; culture: 2D
metric-name: drug sensitivity score
Number only, please.

So for C=CC(=O)Nc1cccc(Nc2nc(Nc3ccc(OCCOC)cc3)ncc2F)c1 [Spebrutinib] , the logged drug sensitivity score turned out to be 1

So for O=C(Nc1cccc(NC(=O)c2cccc(O)c2O)c1)c1cccc(O)c1O [MST-312] , the logged drug sensitivity score turned out to be 4

So for CC1(C)CCC(CN2CCN(c3ccc(C(=O)NS(=O)(=O)c4ccc(NCC5CCOCC5)c([N+](=O)[O-])c4)c(Oc4cnc5[nH]ccc5c4)c3)CC2)=C(c2ccc(Cl)cc2)C1 [Venetoclax] , the logged drug sensitivity score turned out to be 0

So for CO[C@@H]1[C@H](N(C)C(=O)c2ccccc2)C[C@H]2O[C@]1(C)n1c3ccccc3c3c4c(c5c6ccccc6n2c5c31)C(=O)NC4 [Midostaurin] , the logged drug sensitivity score turned out to be 2.3

So for CCN(CC)Cc1ccc2cc(COC(=O)Nc3ccc(C(=O)NO)cc3)ccc2c1 [Givinostat] , the logged drug sensitivity score turned out to be 5.8

So for CC(C)C[C@H](NC(=O)[C@H](CCc1ccccc1)NC(=O)CN1CCOCC1)C(=O)N[C@@H](Cc1ccccc1)C(=O)N[C@@H](CC(C)C)C(=O)[C@@]1(C)CO1 [Carfilzomib] , the logged drug sensitivity score turned out to be 20.4

So for Cc1c(Cn2c(C)nc3c(C(=O)O)cc(N4CCOCC4)cc32)cccc1C(F)(F)F , the logged drug sensitivity score turned out to be 0

So for Cn1c(=O)n(-c2ccc(C(C)(C)C#N)cc2)c2c3cc(-c4cnc5ccccc5c4)ccc3ncc21 [Dactolisib] , the logged drug sensitivity score turned out to be 15.1

So for Cc1cccc(CC(=O)N2CCc3c2ccc(-c2cn(C)c4ncnc(N)c24)c3F)n1 , the logged drug sensitivity score turned out to be 0.1

So for CC[C@H](CC#N)OC(=O)N[C@@H](C)c1cccc(NC(=O)Nc2ccc(-c3cnco3)c(OC)c2)c1 [AVN944] , the logged drug sensitivity score turned out to be 12.8

So for CC1=C(/C=C/C(C)=C/C=C/C(C)=C/C(=O)O)C(C)(C)CCC1 [Tretinoin] , the logged drug sensitivity score turned out to be 0.8

So for CN[C@@H](C)C(=O)N[C@H](C(=O)N1CCC[C@H]1c1nc(C(=O)c2ccc(F)cc2)cs1)C1CCCCC1 [NVP-LCL161] , the logged drug sensitivity score turned out to be 3.9

So for Nc1nc(OCc2cc(Br)cs2)c2[nH]cnc2n1 [Lomeguatrib] , the logged drug sensitivity score turned out to be 0

So for COc1ccc(CCc2nc3cc(-c4c(C)noc4C)ccc3n2C[C@H](C)N2CCOCC2)cc1Cl [SGC-CBP30] , the logged drug sensitivity score turned out to be 3

So for Cc1cn(-c2cc(NC(=O)c3ccc(C)c(Nc4nccc(-c5cnccn5)n4)c3)cc(C(F)(F)F)c2)cn1 [Radotinib] , the logged drug sensitivity score turned out to be 2.6

So for COc1cc(CCc2cc(NC(=O)c3ccc(N4CC(C)NC(C)C4)cc3)n[nH]2)cc(OC)c1 (stereo unspecified) [AZD4547] , the logged drug sensitivity score turned out to be 0
